TEST_SYSTEM: UniProtKB Q9Y5Y9
PROTOCOL: E-VIPR assay for detecting and measuring NaV inhibition properties
Assay type: cell-based
PROTOCOL_CONDITIONS: E-VIPR assay conducted in the presence of human serum; HEK cells expressing truncated human NaV 1.8; read-out: IC50
pIC50: −log10 of the molar value.
ASSAY_METRIC: pIC50

{"COMPOUND": "COc1cc(OC(F)(F)F)ccc1Oc1cc(C2=CCC(C(F)(F)F)CC2)cc(F)c1C(=O)Nc1ccnc(C(N)=O)c1 (stereo not drawn)", "TEST_SYSTEM": "UniProtKB Q9Y5Y9", "RESULT_OPERATOR": "=", "OBSERVED_RESULT": 7.89}
{"COMPOUND": "[2H]C([2H])([2H])Oc1cc(OC(F)(F)F)ccc1Oc1ccc2c(c1C(=O)Nc1ccnc(C(N)=O)c1)OC(F)(F)O2", "TEST_SYSTEM": "UniProtKB Q9Y5Y9", "RESULT_OPERATOR": "=", "OBSERVED_RESULT": 6.29}
{"COMPOUND": "[2H]C([2H])([2H])Oc1cc(OC(F)(F)F)ccc1Oc1cc(C2CCOC2)cc(F)c1C(=O)Nc1ccnc(C(N)=O)c1 (stereo not drawn)", "TEST_SYSTEM": "UniProtKB Q9Y5Y9", "RESULT_OPERATOR": "=", "OBSERVED_RESULT": 6.89}
{"COMPOUND": "COc1cc(C(F)(F)C(F)(F)F)ccc1Oc1ccc(C(F)(F)F)c(F)c1C(=O)Nc1ccnc(C(N)=O)c1", "TEST_SYSTEM": "UniProtKB Q9Y5Y9", "RESULT_OPERATOR": "=", "OBSERVED_RESULT": 7.66}
{"COMPOUND": "COc1cc(OC(F)(F)F)ccc1Oc1ccc(C(F)(F)F)c(C)c1C(=O)Nc1ccc(C(N)=O)nc1", "TEST_SYSTEM": "UniProtKB Q9Y5Y9", "RESULT_OPERATOR": "=", "OBSERVED_RESULT": 7.92}
{"COMPOUND": "[2H]C([2H])([2H])Oc1cc(OC(F)(F)F)ccc1Oc1cc(C2CCC(OC)CC2)cc(F)c1C(=O)Nc1ccnc(C(N)=O)c1 (single isomer, unassigned) [1017 (first diastereomer)]", "TEST_SYSTEM": "UniProtKB Q9Y5Y9", "RESULT_OPERATOR": "=", "OBSERVED_RESULT": 6.60}
{"COMPOUND": "NC(=O)c1cc(NC(=O)c2c(Oc3ccc(F)c(Cl)c3)cccc2C(F)(F)F)ccn1", "TEST_SYSTEM": "UniProtKB Q9Y5Y9", "RESULT_OPERATOR": "<", "OBSERVED_RESULT": 5.52}
{"COMPOUND": "COc1cc(F)ccc1Oc1ccc(C(F)(F)F)c(C)c1C(=O)Nc1ccnc(C(N)=O)c1", "TEST_SYSTEM": "UniProtKB Q9Y5Y9", "RESULT_OPERATOR": "=", "OBSERVED_RESULT": 7.27}
{"COMPOUND": "Cc1c(Oc2ccc(C(F)(F)F)c(C)c2C(=O)Nc2ccnc(C(N)=O)c2)ccc(F)c1F", "TEST_SYSTEM": "UniProtKB Q9Y5Y9", "RESULT_OPERATOR": "=", "OBSERVED_RESULT": 7.72}
{"COMPOUND": "COc1nc(Cl)ccc1Oc1cccc(C(F)(F)F)c1C(=O)Nc1ccnc(C(N)=O)c1", "TEST_SYSTEM": "UniProtKB Q9Y5Y9", "RESULT_OPERATOR": "=", "OBSERVED_RESULT": 5.82}
{"COMPOUND": "CC(C)Oc1ccc(Oc2ccc(C(F)(F)F)cc2C(=O)Nc2ccnc(C(N)=O)c2)cc1F", "TEST_SYSTEM": "UniProtKB Q9Y5Y9", "RESULT_OPERATOR": "=", "OBSERVED_RESULT": 6.18}
{"COMPOUND": "CCc1c(C(F)(F)F)ccc(Oc2ccc(OC(F)(F)F)cc2OC)c1C(=O)Nc1ccc(C(N)=O)nc1", "TEST_SYSTEM": "UniProtKB Q9Y5Y9", "RESULT_OPERATOR": "=", "OBSERVED_RESULT": 6.85}
{"COMPOUND": "COc1c(Oc2ccc(F)c(F)c2C(=O)Nc2ccnc(C(N)=O)c2)ccc(OC(F)(F)F)c1F", "TEST_SYSTEM": "UniProtKB Q9Y5Y9", "RESULT_OPERATOR": "=", "OBSERVED_RESULT": 7.72}
{"COMPOUND": "COc1nc(Cl)ccc1Oc1ccc(C(F)(F)F)cc1C(=O)Nc1ccnc(C(N)=O)c1", "TEST_SYSTEM": "UniProtKB Q9Y5Y9", "RESULT_OPERATOR": "=", "OBSERVED_RESULT": 6.41}
{"COMPOUND": "COc1c(Oc2cnc(C(F)(F)F)c(C)c2C(=O)Nc2ccnc(C(N)=O)c2)ccc(F)c1F", "TEST_SYSTEM": "UniProtKB Q9Y5Y9", "RESULT_OPERATOR": "=", "OBSERVED_RESULT": 7.54}

* * *

TEST_SYSTEM: human NaV 1.8 (Homo sapiens, UniProt Q9Y5Y9)
Sequence (Q9Y5Y9 whole entry, looked up): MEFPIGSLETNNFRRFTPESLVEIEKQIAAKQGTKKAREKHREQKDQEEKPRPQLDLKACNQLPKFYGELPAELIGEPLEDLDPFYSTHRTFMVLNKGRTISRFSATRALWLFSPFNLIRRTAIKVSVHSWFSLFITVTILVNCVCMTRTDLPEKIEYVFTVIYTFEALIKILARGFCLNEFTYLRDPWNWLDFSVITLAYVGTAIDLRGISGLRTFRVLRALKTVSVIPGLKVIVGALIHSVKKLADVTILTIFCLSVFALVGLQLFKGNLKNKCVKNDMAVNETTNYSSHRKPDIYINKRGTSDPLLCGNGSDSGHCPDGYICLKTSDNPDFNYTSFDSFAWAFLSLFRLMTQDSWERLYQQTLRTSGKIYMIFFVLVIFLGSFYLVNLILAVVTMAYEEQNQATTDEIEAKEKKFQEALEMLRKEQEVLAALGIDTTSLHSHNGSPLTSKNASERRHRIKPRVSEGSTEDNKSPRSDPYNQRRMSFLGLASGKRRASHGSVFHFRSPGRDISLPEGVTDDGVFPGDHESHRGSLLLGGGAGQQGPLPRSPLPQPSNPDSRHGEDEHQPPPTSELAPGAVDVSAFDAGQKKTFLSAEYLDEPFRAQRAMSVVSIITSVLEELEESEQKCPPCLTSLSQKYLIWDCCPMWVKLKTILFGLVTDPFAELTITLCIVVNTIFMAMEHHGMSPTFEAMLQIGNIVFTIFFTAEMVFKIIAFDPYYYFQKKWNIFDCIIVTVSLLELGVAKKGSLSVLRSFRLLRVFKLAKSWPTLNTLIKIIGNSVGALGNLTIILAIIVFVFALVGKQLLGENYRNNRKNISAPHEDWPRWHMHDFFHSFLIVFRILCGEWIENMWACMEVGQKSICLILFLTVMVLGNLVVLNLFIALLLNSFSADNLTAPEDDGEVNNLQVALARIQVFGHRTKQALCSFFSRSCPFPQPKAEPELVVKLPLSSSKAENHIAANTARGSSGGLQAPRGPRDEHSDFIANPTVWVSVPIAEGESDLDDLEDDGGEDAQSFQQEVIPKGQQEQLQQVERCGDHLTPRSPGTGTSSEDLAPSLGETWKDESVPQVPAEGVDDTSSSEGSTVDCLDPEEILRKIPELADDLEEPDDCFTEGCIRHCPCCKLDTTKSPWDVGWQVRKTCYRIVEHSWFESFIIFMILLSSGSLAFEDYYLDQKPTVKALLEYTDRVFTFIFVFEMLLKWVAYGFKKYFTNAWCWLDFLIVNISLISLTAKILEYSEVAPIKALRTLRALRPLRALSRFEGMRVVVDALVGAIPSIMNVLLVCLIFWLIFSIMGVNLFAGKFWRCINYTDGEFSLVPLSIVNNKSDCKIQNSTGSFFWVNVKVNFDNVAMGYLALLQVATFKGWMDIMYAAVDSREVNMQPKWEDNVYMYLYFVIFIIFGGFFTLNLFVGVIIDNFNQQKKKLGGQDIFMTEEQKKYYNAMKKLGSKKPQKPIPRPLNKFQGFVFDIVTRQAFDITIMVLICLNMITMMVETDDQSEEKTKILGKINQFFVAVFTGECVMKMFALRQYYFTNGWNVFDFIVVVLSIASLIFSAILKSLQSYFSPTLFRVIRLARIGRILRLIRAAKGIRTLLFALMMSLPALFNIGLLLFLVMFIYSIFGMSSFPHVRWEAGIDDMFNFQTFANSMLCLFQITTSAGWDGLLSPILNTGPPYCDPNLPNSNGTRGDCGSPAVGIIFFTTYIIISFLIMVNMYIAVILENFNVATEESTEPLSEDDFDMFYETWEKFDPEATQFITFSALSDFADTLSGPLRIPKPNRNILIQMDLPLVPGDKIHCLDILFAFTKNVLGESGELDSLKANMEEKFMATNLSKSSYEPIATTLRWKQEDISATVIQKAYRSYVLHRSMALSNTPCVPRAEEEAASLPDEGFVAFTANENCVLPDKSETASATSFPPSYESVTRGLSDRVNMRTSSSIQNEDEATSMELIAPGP
PROTOCOL: E-VIPR assay for detecting and measuring NaV inhibition properties
Assay type: cell-based
PROTOCOL_CONDITIONS: E-VIPR assay conducted in the presence of human serum; HEK cells expressing truncated human NaV 1.8; read-out: IC50
ASSAY_METRIC: IC50 (nM)

{"SMILES_STR": "CC(C)Oc1ccc(Oc2cc(C(F)(F)F)ccc2C(=O)Nc2ccnc(C(N)=O)c2)cc1", "MEASUREMENT_UNITS": "nM", "RESULT_OPERATOR": ">", "OBSERVED_RESULT": 3000}
{"SMILES_STR": "NC(=O)c1cc(NC(=O)c2cc(Cl)ccc2Oc2ccc(OC(F)(F)F)cn2)ccc1F", "MEASUREMENT_UNITS": "nM", "RESULT_OPERATOR": ">", "OBSERVED_RESULT": 3000}
{"SMILES_STR": "COc1cc(OC(F)(F)F)ccc1Oc1cc(OC)c(C(F)(F)F)c(F)c1C(=O)Nc1ccc(C(N)=O)nc1", "MEASUREMENT_UNITS": "nM", "RESULT_OPERATOR": "=", "OBSERVED_RESULT": 17.4}
{"SMILES_STR": "Cc1c(F)ccc(Oc2ccc(C(F)(F)F)c(F)c2C(=O)Nc2ccc(C(N)=O)nc2)c1C", "MEASUREMENT_UNITS": "nM", "RESULT_OPERATOR": ">", "OBSERVED_RESULT": 3000}
{"SMILES_STR": "COc1cc(F)ccc1Oc1ccc(C(F)(F)F)c(F)c1C(=O)Nc1ccnc(C(N)=O)c1", "MEASUREMENT_UNITS": "nM", "RESULT_OPERATOR": "=", "OBSERVED_RESULT": 13}

* * *

TEST_SYSTEM: human NaV 1.8 (Homo sapiens)
PROTOCOL: E-VIPR assay for detecting and measuring NaV inhibition properties
Assay type: cell-based
PROTOCOL_CONDITIONS: E-VIPR assay conducted in the presence of human serum; HEK cells expressing truncated human NaV 1.8; read-out: IC50
pIC50: −log10 of the molar value.
The following compounds are shown together with reported pIC50 values.

{"COMPOUND": "COc1ccc(Cl)cc1Oc1ccc(C(F)(F)F)cc1C(=O)Nc1ccnc(C(N)=O)c1 [Compound 15]", "RESULT_OPERATOR": "<", "pIC50": 5.52}
{"COMPOUND": "COc1cc(OC(F)(F)F)ccc1Oc1cc(C(F)(F)F)c(OC)cc1C(=O)Nc1ccnc(C(N)=O)c1 [Compound 276]", "RESULT_OPERATOR": "=", "pIC50": 6.36}
{"COMPOUND": "[2H]C([2H])([2H])Oc1cc(OC(F)(F)F)ccc1Oc1cc(-c2cccnc2)cc(F)c1C(=O)Nc1ccnc(C(N)=O)c1 [Compound 90]", "RESULT_OPERATOR": "=", "pIC50": 6.68}
{"COMPOUND": "COc1cc(OC(F)(F)F)ccc1Oc1ccc(C2CC2)c(C)c1C(=O)Nc1ccnc(C(N)=O)c1 [Compound 181]", "RESULT_OPERATOR": "=", "pIC50": 7.92}
{"COMPOUND": "CCOc1c(C(F)(F)F)ccc(Oc2ccc(OC(F)(F)F)cc2OC)c1C(=O)Nc1ccnc(C(N)=O)c1 [Compound 83]", "RESULT_OPERATOR": "=", "pIC50": 6.80}
{"COMPOUND": "CCOc1ccc(Oc2ccc(C(F)(F)F)c(F)c2C(=O)Nc2ccnc(C(N)=O)c2)cc1Cl [Compound 38]", "RESULT_OPERATOR": "=", "pIC50": 7.37}
{"COMPOUND": "[2H]C([2H])([2H])Oc1cc(OC(F)(F)F)ccc1Oc1cc(C(F)(F)F)cnc1C(=O)Nc1ccnc(C(N)=O)c1 [Compound 173]", "RESULT_OPERATOR": "=", "pIC50": 5.89}
{"COMPOUND": "COc1c(Oc2ccc(C(F)(F)F)c(C)c2C(=O)Nc2cnc(C(N)=O)cn2)ccc(OC(F)(F)F)c1F [Compound 316]", "RESULT_OPERATOR": "=", "pIC50": 7.62}
{"COMPOUND": "COc1c(Oc2cnc(C(F)(F)F)c(C)c2C(=O)Nc2cc(C(N)=O)ncc2C)ccc(OC(F)(F)F)c1F [Compound 336]", "RESULT_OPERATOR": "=", "pIC50": 8.25}
{"COMPOUND": "COc1cc(OC(F)(F)F)ccc1Oc1cc(Cl)cc(F)c1C(=O)Nc1cc(C(N)=O)[n+]([O-])cc1C [Compound 267]", "RESULT_OPERATOR": "=", "pIC50": 7.08}
{"COMPOUND": "CCc1nc(C(=O)Nc2ccnc(C(N)=O)c2)c(Oc2ccc(OC(F)(F)F)cc2OC)cc1C(F)(F)F [Compound 274]", "RESULT_OPERATOR": "=", "pIC50": 7.41}
{"COMPOUND": "[2H]C([2H])([2H])Oc1cc(OC(F)(F)F)ccc1Oc1cc(C(F)(F)F)cnc1C(=O)Nc1ccc(C(N)=O)nc1 [Compound 174]", "RESULT_OPERATOR": "<", "pIC50": 5.52}
{"COMPOUND": "NC(=O)c1ccc(NC(=O)c2c(Oc3ccc(OC(F)(F)F)cc3C3CC3)ccc(C(F)(F)F)c2F)cn1 [Compound 206]", "RESULT_OPERATOR": "=", "pIC50": 6.44}
{"COMPOUND": "COc1cc(OC(F)(F)F)ccc1Oc1cc(C(F)(F)F)cc(OC)c1C(=O)Nc1ccnc(C(N)=O)c1 [Compound 277]", "RESULT_OPERATOR": "=", "pIC50": 6.77}
{"COMPOUND": "Cc1c(C(F)(F)F)ccc(Oc2c(F)cc(F)cc2F)c1C(=O)Nc1ccc(C(N)=O)nc1 [Compound 230]", "RESULT_OPERATOR": "<", "pIC50": 5.52}
{"COMPOUND": "COc1cc(F)ccc1Oc1cc(C(F)(F)F)nc(C)c1C(=O)Nc1ccnc(C(N)=O)c1 [Compound 351]", "RESULT_OPERATOR": "=", "pIC50": 6.39}
{"COMPOUND": "[2H]C([2H])([2H])Oc1cc(OC(F)(F)F)ccc1Oc1cc(-c2ccccc2C(F)(F)F)cc(F)c1C(=O)Nc1ccnc(C(N)=O)c1 [Compound 95]", "RESULT_OPERATOR": "=", "pIC50": 6.85}
{"COMPOUND": "[2H]C([2H])([2H])Oc1cc(OC(F)(F)F)ccc1Oc1cc(-c2ccccc2)cc(F)c1C(=O)Nc1ccnc(C(N)=O)c1 [Compound 92]", "RESULT_OPERATOR": "=", "pIC50": 7.20}
{"COMPOUND": "COc1cc(OC(F)(F)F)ccc1Oc1cc(C2CC2)c(F)c(C)c1C(=O)Nc1ccnc(C(N)=O)c1 [Compound 264]", "RESULT_OPERATOR": "=", "pIC50": 7.28}
